- Tested on: HCT-15 colon
- measurementDescription: NCI tumour cell line growth inhibition, 48 h
The following molecules are listed with their measured TGI values.
assayReadout: TGI

> print(dat)
                                    molecule   studysystem  recordedresult
 1  CC(C)(C)OC(=O)CCC1NC(=O)[C@@H]2Cc3c([nH]c4ccccc34)C(C3CCCCC3)N2C1=O (stereo partly specified)  HCT-15 colon        > 100 µM
 2  Nc1c(C(=O)Nc2ccccc2)sc2nc3c(cc12)C(O)CCC3 (stereo unspecified)  HCT-15 colon        > 100 µM
 3  COc1ccc2c(c1)-c1c(c3cc(OC)ccc3n1CCN1CCOCC1)CC2  HCT-15 colon         39.4 µM
 4  C=CCNC(=O)NNC(O)(C(=O)OCC)C(F)(F)F (stereo unspecified)  HCT-15 colon        > 100 µM
 5  O=C(O)[C@@H]1CCCN1Cc1cc2cc3c(cc2c2cc(OCc4ccccc4)ccc12)OCO3  HCT-15 colon        > 100 µM
 6  C[C@]12CC[C@H](O)C[C@@H]1CC[C@@H]1[C@@H]2CC[C@]2(C)[C@@H](c3cc(C(F)(F)F)n[nH]3)CC[C@@H]12  HCT-15 colon         24.3 µM
 7  O=[N+]([O-])c1ccc(-c2nc(/C=N/N3CCCCC3)cs2)o1  HCT-15 colon        > 100 µM
 8  CC1(SCC(N)C(=O)O)CC(=O)NC1=O (stereo unspecified)  HCT-15 colon        > 100 µM
 9      O=S(=O)(Cc1nc2ccccc2s1)c1nc2ccccc2s1  HCT-15 colon           32 µM
10  c1ccc(C2=NOC3COc4ccccc4OCC23)cc1 (stereo unspecified)  HCT-15 colon        > 100 µM
11  COc1cc2c(c(OC)c1)C(C)=NC(C)C2 (stereo unspecified)  HCT-15 colon        > 100 µM
12   Nc1nc(Cl)c(/C=N\O)c(NCC2(CO)CC(=O)C2)n1  HCT-15 colon        > 100 µM
13  CCCOc1cc2c(cc1O)CC[C@@H]1[C@@H]2CC[C@]2(C)[C@@H](O)CC[C@@H]12  HCT-15 colon       > 35.3 µM
14  COC(=O)N1c2ccc3c(nc(Cc4ccccc4)n3[C@H]3CCC[C@H](C(=O)O)C3)c2CC[C@@H]1C  HCT-15 colon        > 100 µM
15  COc1cc(C2c3cc4c(cc3[C@@H](NCCCN3CCCC3=O)C3COC(=O)[C@H]23)OCO4)cc(OC)c1O (stereo partly specified)  HCT-15 colon        > 100 µM
16                 CC1=Nc2c(N)nc(N)nc2N(C)C1  HCT-15 colon        > 100 µM
17      CC(=O)CC1(O)C(=O)c2c(Br)sc(Br)c2C1=O  HCT-15 colon         45.7 µM
18      CCCCCC/C=C\CCCCCCCCCc1cc(O)cc(OC)c1O  HCT-15 colon         1.32 µM
19  C=C[C@@]1(C)CC2(C=C(CO)C(O)O2)Oc2c1c(=O)oc1cccc(C)c21 (stereo partly specified)  HCT-15 colon         7.17 µM
20  COc1ccc(NC(=O)c2sc3nc(C)c(C(=O)/C=C/c4ccccc4)cc3c2N)cc1  HCT-15 colon         2.07 µM
21    Cc1ccc(S(=O)(=O)Oc2ccccc2-c2ccccc2)cc1  HCT-15 colon        > 100 µM
